Values from patent US20170008928A1

- system_under_test: human cholecystokinin-2 receptor (CCK-2R) (Homo sapiens)
- Construct: host or cells: 1321-N1 cells (plasma membranes prepared by Evotec AG Hamburg)
- Sequence (P32239 1-447): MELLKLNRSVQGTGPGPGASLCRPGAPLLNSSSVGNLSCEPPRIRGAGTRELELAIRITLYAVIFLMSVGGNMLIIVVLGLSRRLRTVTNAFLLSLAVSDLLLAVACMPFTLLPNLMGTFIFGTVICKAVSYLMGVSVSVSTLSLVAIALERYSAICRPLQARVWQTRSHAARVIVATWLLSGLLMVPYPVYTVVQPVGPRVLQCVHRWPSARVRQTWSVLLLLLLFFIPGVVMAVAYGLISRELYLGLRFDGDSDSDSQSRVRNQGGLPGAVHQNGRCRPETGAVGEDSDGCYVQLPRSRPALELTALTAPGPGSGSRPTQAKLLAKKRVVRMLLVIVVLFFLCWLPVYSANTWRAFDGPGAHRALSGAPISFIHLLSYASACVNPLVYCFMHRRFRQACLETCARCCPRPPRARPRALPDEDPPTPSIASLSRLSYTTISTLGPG
- assay_info: In vitro potency on CCK-2R, whole cell functional assay (IP1 accumulation, IP-One HTRF)
- Format: cell-based
- condition_context: 1321-N1 cells stably expressing CCK-2R; IP1 accumulation; highest dose tested 1×10^6 pM; read-out: EC50 (CCK-2R)
Starred links: 1 amine or outer side, 2 acyl side, 3 side chain; linkers in the order of their positions; H or OH if unused. Non-standard residues stand in square brackets, D forms with d. Residues, ends and D or L forms follow the SMILES beside them. *: point of attachment. Phe(4-CH2SO3H) = N[C@@H](Cc1ccc(CS(=O)(=O)O)cc1)C(=O)O; sY = N[C@@H](Cc1ccc(OS(=O)(=O)O)cc1)C(=O)O; C18 diacid = O=C(O)CCCCCCCCCCCCCCCCC(=O)*; C16 diacid = O=C(O)CCCCCCCCCCCCCCC(=O)*; γGlu = O=C(O)[C@H](CCC(=O)[*:2])N[*:1]; C14 diacid = O=C(O)CCCCCCCCCCCCC(=O)*; βAsp = O=C(O)[C@H](CC(=O)[*:2])N[*:1]; NMeF = CN[C@@H](Cc1ccccc1)C(=O)O; dNMeD = CN[C@H](CC(=O)O)C(=O)O; Nle = CCCC[C@H](N)C(=O)O; AEEA = NCCOCCOCC(=O)O
measurement_kind: EC50

Guide cases for EC50, answers given:
IN: I would be grateful if you could share the reported EC50 for CCCC[C@H](NC(=O)[C@H](Cc1c[nH]c2ccccc12)NC(=O)CNC(=O)[C@H](CCCNC(=N)N)NC(=O)[C@H](Cc1ccc(OS(=O)(=O)O)cc1)NC(=O)[C@H](CC(=O)O)NC(=O)COCCOCCNC(=O)COCCOCCNC(=O)CC[C@H](NC(=O)CCCCCCCCCCCCCCCCC(=O)O)C(=O)O)C(=O)N(C)[C@H](CC(=O)O)C(=O)N(C)[C@@H](Cc1ccccc1)C(N)=O [Example 17] ({C18 diacid-γGlu-AEEA-AEEA}-D[sY]RGW[Nle][dNMeD][NMeF]-NH2) .
OUT: 270 nM

IN: Sample CCCC[C@H](NC(=O)[C@H](Cc1c[nH]c2ccccc12)NC(=O)CNC(=O)[C@H](CC(C)C)NC(=O)[C@H](Cc1ccc(OS(=O)(=O)O)cc1)NC(=O)[C@@H](N)CCC(=O)O)C(=O)N(C)[C@H](CC(=O)O)C(=O)N[C@@H](Cc1ccccc1)C(N)=O [Example 90] (H-E[sY]LGW[Nle][dNMeD]F-NH2) — what was its EC50?
OUT: > 1000 nM

IN: State the recorded EC50 for this entry: CCCC[C@H](NC(=O)[C@@H](N)Cc1ccc(OS(=O)(=O)O)cc1)C(=O)NCC(=O)N[C@@H](Cc1c[nH]c2ccccc12)C(=O)N[C@@H](CCCC)C(=O)N(C)[C@H](CC(=O)O)C(=O)N(C)[C@@H](Cc1ccccc1)C(N)=O [Example 72, sTyr-Nle-Gly-Trp-Nle-DMeAsp-MePhe-amide] (H-[sY][Nle]GW[Nle][dNMeD][NMeF]-NH2; N-terminus assumed)
OUT: > 1000 nM

IN: What EC50 value was documented for this compound, CCCC[C@H](NC(=O)[C@H](Cc1c[nH]c2ccccc12)NC(=O)CNC(=O)[C@H](CC(C)C)NC(=O)[C@H](Cc1ccc(CS(=O)(=O)O)cc1)NC(=O)[C@H](CC(=O)O)NC(=O)COCCOCCNC(=O)COCCOCCNC(=O)CC[C@H](NC(=O)CCCCCCCCCCCCC(=O)O)C(=O)O)C(=O)N(C)[C@H](CC(=O)O)C(=O)N(C)[C@@H](Cc1ccccc1)C(N)=O [Example 34] ({C14 diacid-γGlu-AEEA-AEEA}-D[Phe(4-CH2SO3H)]LGW[Nle][dNMeD][NMeF]-NH2) ?
OUT: > 1000 nM

Next:
IN: If you can, please state the reported EC50 value of CCCC[C@H](NC(=O)[C@H](Cc1c[nH]c2ccccc12)NC(=O)CNC(=O)[C@H](CCCCN)NC(=O)[C@H](Cc1ccc(OS(=O)(=O)O)cc1)NC(=O)[C@@H](N)CC(=O)O)C(=O)N(C)[C@H](CC(=O)O)C(=O)N(C)[C@@H](Cc1ccccc1)C(N)=O [Example 67] (H-D[sY]KGW[Nle][dNMeD][NMeF]-NH2) .
OUT: > 1000 nM

IN: Fill in the blank: the reported EC50 of CCCC[C@H](NC(=O)[C@H](Cc1ccc(CS(=O)(=O)O)cc1)NC(=O)C[C@H](NC(=O)COCCOCCNC(=O)COCCOCCNC(=O)CC[C@H](NC(=O)CCCCCCCCCCCCCCCCC(=O)O)C(=O)O)C(=O)O)C(=O)NCC(=O)N[C@@H](Cc1c[nH]c2ccccc12)C(=O)N[C@@H](CCCC)C(=O)N(C)[C@H](CC(=O)O)C(=O)N(C)[C@@H](Cc1ccccc1)C(N)=O [Example 26] ({C18 diacid-γGlu-AEEA-AEEA-βAsp}-[Phe(4-CH2SO3H)][Nle]GW[Nle][dNMeD][NMeF]-NH2) is ____.
OUT: > 1000 nM

IN: Could you share which EC50 value was measured for CCCC[C@H](NC(=O)[C@H](Cc1c[nH]c2ccccc12)NC(=O)CNC(=O)[C@H](CC(C)C)NC(=O)[C@H](Cc1ccc(OS(=O)(=O)O)cc1)NC(=O)[C@H](CCC(=O)O)NC(=O)COCCOCCNC(=O)COCCOCCNC(=O)CC[C@H](NC(=O)CCCCCCCCCCCCCCC(=O)O)C(=O)O)C(=O)N(C)[C@H](CC(=O)O)C(=O)N(C)[C@@H](Cc1ccccc1)C(N)=O [Example 39] ({C16 diacid-γGlu-AEEA-AEEA}-E[sY]LGW[Nle][dNMeD][NMeF]-NH2) ?
OUT: 110 nM

* * *

- assay_info: Pharmacokinetic (PK) studies in mini-pig, i.v.
- Type: in vivo
- condition_context: i.v. 5 nmol/kg, female Göttingen mini-pigs, harmonic mean
Starred links: 1 amine or outer side, 2 acyl side, 3 side chain; linkers in the order of their positions; H or OH if unused. Non-standard residues stand in square brackets, D forms with d. Residues, ends and D or L forms follow the SMILES beside them. *: point of attachment. Phe(4-CH2SO3H) = N[C@@H](Cc1ccc(CS(=O)(=O)O)cc1)C(=O)O; C20 diacid = O=C(O)CCCCCCCCCCCCCCCCCCC(=O)*; sY = N[C@@H](Cc1ccc(OS(=O)(=O)O)cc1)C(=O)O; C18 diacid = O=C(O)CCCCCCCCCCCCCCCCC(=O)*; NMe1Nal = CN[C@@H](Cc1cccc2ccccc12)C(=O)O; γGlu = O=C(O)[C@H](CCC(=O)[*:2])N[*:1]; 1Nal = N[C@@H](Cc1cccc2ccccc12)C(=O)O; C14 diacid = O=C(O)CCCCCCCCCCCCC(=O)*; NMeF = CN[C@@H](Cc1ccccc1)C(=O)O; dNMeD = CN[C@H](CC(=O)O)C(=O)O; Nle = CCCC[C@H](N)C(=O)O; AEEA = NCCOCCOCC(=O)O
# reported Plasma terminal half-life (T½); entries follow
Field: numeric (h). Do not append units.

IN: Suppose we examine the compound CCCC[C@H](NC(=O)[C@H](Cc1ccc(OS(=O)(=O)O)cc1)NC(=O)[C@H](CC(=O)O)NC(=O)COCCOCCNC(=O)COCCOCCNC(=O)CC[C@H](NC(=O)CCCCCCCCCCCCCCCCC(=O)O)C(=O)O)C(=O)NCC(=O)N[C@@H](Cc1c[nH]c2ccccc12)C(=O)N[C@@H](CCCC)C(=O)N(C)[C@H](CC(=O)O)C(=O)N[C@@H](Cc1cccc2ccccc12)C(N)=O [Example 2] ({C18 diacid-γGlu-AEEA-AEEA}-D[sY][Nle]GW[Nle][dNMeD][1Nal]-NH2) ; what Plasma terminal half-life (T½) value has been reported?
OUT: 140

IN: Which Plasma terminal half-life (T½) is reported for this compound? CCCC[C@H](NC(=O)[C@H](Cc1c[nH]c2ccccc12)NC(=O)CNC(=O)[C@H](CC(C)C)NC(=O)[C@H](Cc1ccc(CS(=O)(=O)O)cc1)NC(=O)[C@H](CC(=O)O)NC(=O)COCCOCCNC(=O)COCCOCCNC(=O)CC[C@H](NC(=O)CCCCCCCCCCCCCCCCCCC(=O)O)C(=O)O)C(=O)N(C)[C@H](CC(=O)O)C(=O)N(C)[C@@H](Cc1ccccc1)C(N)=O [Example 35] ({C20 diacid-γGlu-AEEA-AEEA}-D[Phe(4-CH2SO3H)]LGW[Nle][dNMeD][NMeF]-NH2)
OUT: 153

IN: Request the reported Plasma terminal half-life (T½) associated with CCCC[C@H](NC(=O)[C@H](Cc1c[nH]c2ccccc12)NC(=O)CNC(=O)[C@H](CC(C)C)NC(=O)[C@H](Cc1ccc(OS(=O)(=O)O)cc1)NC(=O)[C@H](CC(=O)O)NC(=O)COCCOCCNC(=O)COCCOCCNC(=O)CC[C@H](NC(=O)CCCCCCCCCCCCCCCCC(=O)O)C(=O)O)C(=O)N(C)[C@H](CC(=O)O)C(=O)N(C)[C@@H](Cc1cccc2ccccc12)C(N)=O [Example 4] ({C18 diacid-γGlu-AEEA-AEEA}-D[sY]LGW[Nle][dNMeD][NMe1Nal]-NH2)
OUT: 147

Now consider the entry below.
IN: Request the reported Plasma terminal half-life (T½) associated with CCCC[C@H](NC(=O)[C@H](Cc1c[nH]c2ccccc12)NC(=O)CNC(=O)[C@H](CC(C)C)NC(=O)[C@H](Cc1ccc(CS(=O)(=O)O)cc1)NC(=O)[C@H](CC(=O)O)NC(=O)COCCOCCNC(=O)COCCOCCNC(=O)CC[C@H](NC(=O)CCCCCCCCCCCCC(=O)O)C(=O)O)C(=O)N(C)[C@H](CC(=O)O)C(=O)N(C)[C@@H](Cc1ccccc1)C(N)=O [Example 34] ({C14 diacid-γGlu-AEEA-AEEA}-D[Phe(4-CH2SO3H)]LGW[Nle][dNMeD][NMeF]-NH2)
OUT: 2
